# test.system: MMP-3 (stromelysin) (Homo sapiens, UniProt P08254)
# Sequence (P08254 100-477, species assumed): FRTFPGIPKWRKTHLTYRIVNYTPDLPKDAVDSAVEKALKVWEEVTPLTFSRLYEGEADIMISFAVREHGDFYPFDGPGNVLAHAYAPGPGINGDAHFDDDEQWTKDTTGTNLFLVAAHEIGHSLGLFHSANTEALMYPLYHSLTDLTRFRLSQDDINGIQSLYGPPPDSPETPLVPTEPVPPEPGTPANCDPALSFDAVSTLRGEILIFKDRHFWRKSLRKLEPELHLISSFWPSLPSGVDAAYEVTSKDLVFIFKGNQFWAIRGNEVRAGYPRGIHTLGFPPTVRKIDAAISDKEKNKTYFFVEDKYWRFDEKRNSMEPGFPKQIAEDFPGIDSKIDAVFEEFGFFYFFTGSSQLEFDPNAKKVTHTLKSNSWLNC
pIC50: −log10 of the molar value.
Use satisfied when the recorded pIC50 is no lower than 7; use not satisfied when it is lower.

Below are worked cases with known answers.
>>> classification("O=C(CCc1ccccc1)N[C@@H](CC(=O)c1ccc2oc3ccccc3c2c1)C(=O)O")
"not satisfied"
>>> classification("O=C(C[C@H](NC(=O)C(F)(F)F)C(=O)O)c1ccc2oc3ccccc3c2c1")
"not satisfied"
>>> classification("O=C(O)CNS(=O)(=O)c1ccc(N2CCC(c3ccccc3)CC2)cc1")
"satisfied"

With those in mind, consider the next compound.
Query :: Does pIC50 meet or surpass 7 for O=C(O)[C@H](CSC(c1ccccc1)(c1ccccc1)c1ccccc1)NS(=O)(=O)c1ccc2oc3ccccc3c2c1 ?
Result :: not satisfied
